src = paper PMC10464304

Molecular target: T1, GST-hUHRF1-TTD (126-280) R207L (human, UniProt Q96T88 126-280, R207L)
T1 construct: Tandem Tudor domain (TTD) of human UHRF1, UniProt Q96T88, residues 126-280; source: E. coli, purified (Glutathione Agarose 4B); not shown: GST, N-terminal, kept
T1 sequence (looked up): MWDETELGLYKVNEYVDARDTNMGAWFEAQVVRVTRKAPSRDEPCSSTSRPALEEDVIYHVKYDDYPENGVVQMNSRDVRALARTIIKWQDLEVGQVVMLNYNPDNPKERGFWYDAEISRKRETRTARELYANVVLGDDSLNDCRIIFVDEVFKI
Assay: fluorescence polarisation; fluorescence anisotropy titration; 100 nM FITC-labeled peptide in the cuvette, protein added stepwise; 23°C; 100 mM KCl, 20 mM HEPES pH 7.5, 10% v/v glycerol
Details: both partners purified
No end group written: not given here. Me3 = trimethyl (trimethyl-lysine)
assay_readout: pKd
# pKd = -log10(concentration in molar units)

>  <binder>
ARTKQTARKSTGGKAPRKQ (peptide, UniProt P68431 2-20, looked up, K9me3 (trimethyl-lysine at 9); FITC-labeled, histone H3 N-terminal tail, residues 1-19; also called H3K9me3; H3 K9me3) [FITC-labeled H3(1-19) peptide with K9me3]

>  <assay_readout>
pKd

>  <val>
6.05

$$$$

Could you now look at the following binder, please?
Requested field: pKd. Item: ARTK(Me)QTARK(Me3)STGGKAPRKQ (peptide, UniProt P68431 2-20, looked up, also: FITC-labeled (position not given here), histone H3 N-terminal tail, residues 1-19; also called H3K4me1-K9me3; H3 K4me1-K9me3) [FITC-labeled H3(1-19) peptide with K4me1 and K9me3] 6.36
